Test system: human embryonic lung (HEL) cells
Details: HEL cell cultures (Table 5); microscopically detectable alteration of normal cell morphology

[
  {
    "Compound": "Nc1ccn(C[C@@H](CO)OCP(=O)(O)O)c(=O)n1.O.O [Cidofovir]",
    "Minimum cytotoxic concentration": ">250 µM"
  },
  {
    "Compound": "Nc1ccn([C@H]2CC[C@@H](CO)O2)c(=O)n1 [Zalcitabine]",
    "Minimum cytotoxic concentration": ">250 µM"
  },
  {
    "Compound": "Nc1nc2c(ncn2COCCO)c(=O)[nH]1 [Acyclovir]",
    "Minimum cytotoxic concentration": ">250 µM"
  },
  {
    "Compound": "NC(=O)c1ncn([C@@H]2O[C@H](CO)[C@@H](O)[C@H]2O)n1 [Ribavirin]",
    "Minimum cytotoxic concentration": "≥250 µM"
  },
  {
    "Compound": "Cc1cn([C@H]2C[C@H](F)[C@@H](CO)O2)c(=O)[nH]c1=O [Alovudine]",
    "Minimum cytotoxic concentration": ">250 µM"
  },
  {
    "Compound": "CCOP(=O)(OCC)[C@@H]1C[C@@H](Cn2c(=O)n(C(=O)c3ccc(F)cc3)c(=O)c3ccccc32)ON1C (relative stereo) [trans-12d]",
    "Minimum cytotoxic concentration": "≥100 ± 0 µM"
  },
  {
    "Compound": "Nc1nc(O)c2ncn(COC(CO)CO)c2n1 [Ganciclovir]",
    "Minimum cytotoxic concentration": ">100 µM"
  }
]

Just for reference, paper PMC7125519 is where these values come from.
